tested on: MDA-N; test: NCI tumour cell line growth inhibition, 48 h
Active and inactive are the calls of the source. Cut-off read from the data, not from the text of the source: active = GI50 up to about 1.1 µM and inactive = higher.
Tick one outcome: Y for active, N for inactive

State the result this test recorded for C=C1C(=O)OC2(C)CCC1CC1OC1(C)CCC=C(C)CCC2O (configuration not stated) . N

Hey, what did the test say about O=C(c1ccc(Cl)cc1)N1CCN=C1c1cc2ccccc2c2ccccc12 ? N

Recorded test call requested for COP(=O)(OC)C(N)CCSC (configuration not stated) N

Name the outcome recorded for Cc1cccc2c1CC(C1OC(=O)c3ccccc31)C2=O (configuration not stated) in the assay. N

Look up the recorded call for CC[C@@H]1CC[C@@H]2[C@H](CC[C@]3(C)[C@@H](O[N+](=O)[O-])CC[C@@H]23)[C@H]1C(C)=O in this test. N

Please state the recorded outcome for this molecule: O=S1(=O)CS(=O)(=O)OCCCO1 N

What call does the record list for C#C[C@]1(O)[C@@H](CO)O[C@@H](n2ccc(=O)[nH]c2=O)[C@@H]1O ? Y

For this molecule, state the assay outcome: COC(=O)NC1(NC(=O)OC)NC(=O)c2cc(OC)c(OC)c(OC)c2N1 N

Dear colleague, could you share the recorded outcome for COC(=O)C1=C(C(=O)OC)C2(c3ccccc3)c3ccccc3C(=O)C1N2C1CCCCC1 (configuration not stated) when you have a moment? N

Field: outcome | Entry: CC(=O)OCCOc1cc2c([nH]c3ccccc32)c(C)c2cccc1-2 N

Tell me the assay call for O=C1NC(N2CCCCC2)=N/C1=C\c1ccccc1O please. N

Which outcome did this test record for the molecule Fc1ccccc1-c1nn2c(C34CC5CC(CC(C5)C3)C4)nnc2s1 ? N

Per the assay record, what outcome was assigned to CC1CC(=O)NC2CC1C2(C)C (configuration not stated) ? N

Assay result, entry O=C(CC(=O)N1N=C(N2CCCCC2)CC1c1ccccc1)Nc1ccccc1 (configuration not stated) — outcome? N

Call for entry O=C(NC(Cc1ccccc1)(Cc1ccc(O)cn1)C(=O)O)c1ccccc1 (configuration not stated) : N

# outcome recorded in this test, key = O=c1[nH]nc(-c2ccccc2)n1Nc1ccccc1 N

Could you kindly confirm the outcome this assay logged for CCCn1c(CN(Cc2nc3ccccc3n2CCC)Cc2nc3ccccc3n2CCC)nc2ccccc21 ? N

// outcome(item) with item = COc1cc2ncnc(NS(=O)(=O)c3cc4ccccc4s3)c2cc1OC N

Please share the test call associated with CCN(CC)CCn1c(=O)c2ccccc2n2c3c(=O)n(C)c(=O)n(C)c3nc12 . N

Could you check what this test reported for Cn1c2cc(Cl)ccc2c2ccc3c(c21)C(=O)C=CC3=O ? N

// outcome(item) with item = Nc1nc(S)c2c(N)n[nH]c2c1C(=O)Nc1ccccc1 N

Test call for this molecule, please: COc1cc(CNC(=O)CCCCCCCCCCSSCCCCCCCCCCC(=O)NCc2ccc(O)c(OC)c2)ccc1O N

I would be grateful if you could indicate the recorded call for C=C(C1=CC(=O)C(C)(C)O1)[C@@H]1CC=C([C@@H]2CC[C@H]3[C@@]2(C)CC[C@H]2C(C)(C)C(=O)[C@H](OC(=O)CC(C)(O)CC(=O)O)C[C@]32C)[C@H](O)O1 (some centres not stated) . N

Record request — test call for N=c1oc2c(Cl)cc(Cl)cc2cc1C(=O)Nc1ccccn1 N

Recorded test call requested for O=C1/C(=C\c2cccc(Oc3ccccc3)c2)SC(c2ccccc2)N1c1cccc([N+](=O)[O-])c1 (configuration not stated) N

Recorded call for CCCC(=O)Nc1cc(/C=C/C(=O)N2CC(CCl)c3ccc([N+](=O)[O-])cc32)n(C)c1 (configuration not stated) ? N

Record request — test call for CC(C)(C)c1cc(C(=O)/C=C/c2ccc(O)c(O)c2O)cc(C(C)(C)C)c1O N

Status in this test for CC(NC(=O)Cc1ccccc1)NC(=O)C(C)C(=O)Nc1ccccc1 (configuration not stated) ? N

Hello, I am checking results. What call was entered for FC1(F)ON2CCc3ccccc3C2[C@H]1c1ccccc1 (some centres not stated) ? N

Give the logged outcome of this assay for the following molecule: Cc1nn(C(=O)c2ccccc2O)c2c1C(c1ccc([N+](=O)[O-])cc1)SC(=N)N2 (configuration not stated) N

Returns: the outcome recorded for COC(=O)c1cn(CCCCO)nn1 in this assay. N

What call does the record list for Cc1cc(NCCCCCCCNc2cc(C)nc3cc([N+](=O)[O-])ccc23)c2ccc([N+](=O)[O-])cc2n1 ? N

Recorded call for C/C=C/[C@@H]1[C@H]2C(=O)[C@]3(Cl)[C@@H](/C=C/C)[C@@H]3C(=O)[C@@]12Cl ? N

Dear all, I need the recorded test outcome for CNc1nc(SC)nc2c1c(N)nn2C , thank you. N

// param item: O=Cc1[nH]c(=O)[nH]c(=O)c1C(=O)O ; yields the recorded call N

Could you kindly confirm the outcome this assay logged for CCOC(=O)O/N=C1/C(=C2/C(=O)Nc3ccccc32)Nc2ccccc21 ? N

Hi team, can someone confirm the assay call for Cc1c(Cl)ccc2c(=O)c3cccc(CC(=O)O)c3oc12 ? N
